Test system: ACHN renal
Procedure details: NCI-60 one-dose screen, 48 h
Study conditions: 10 µM unless noted
About 83,000 compounds went through this panel and 20% of them were active in at least one assay; those are over-represented in the sample as a whole. Calls of active or inactive are those of the source. The calls were made as follows: active = growth percent below 10; inactive = the rest.
Possible outcomes: yes (1) (active), no (0) (inactive)

>  <Compound>
COc1cc(CNC(=O)/C=C/c2ccc3c(c2)OCO3)ccc1OCc1cn(-c2ccc([N+](=O)[O-])cc2)nn1

>  <Class name>
no (0)

$$$$
>  <Compound>
C=C1CCC2C3(C)COC(c4cccs4)OC3CCC2(C)C1CC(Sc1ccccc1)C1=CCOC1=O (centres undefined)

>  <Class name>
no (0)

$$$$
>  <Compound>
NS(=O)(=O)c1ccc(NNC(=O)CCC(=O)c2ccccc2)cc1

>  <Class name>
no (0)

$$$$
>  <Compound>
CCN1C(=O)N(CC)C2NNC(Sc3c(C(=O)O)c4ccccc4n(C4CCCC4)c3=O)=NC21 (centres undefined)

>  <Class name>
no (0)

$$$$
>  <Compound>
O=C(N1c2ccccc2Sc2ccccc21)n1ccc2cccnc21

>  <Class name>
no (0)

$$$$
>  <Compound>
CC(=O)OCC1OC(OC2C(COC(C)=O)OC(n3cc(COc4ccc5ccc(=O)oc5c4)nn3)C(OC(C)=O)C2OC(C)=O)C(OC(C)=O)C(OC(C)=O)C1OC(C)=O (centres undefined)

>  <Class name>
no (0)

$$$$
>  <Compound>
COc1cc2oc(-c3cccc(C(=O)Nc4ccc(Cl)cc4)c3)cc(=O)c2c(OCCNC(=O)[C@@H](N)CCC(=O)O)c1OC

>  <Class name>
no (0)

$$$$
>  <Compound>
CC(=O)Oc1ccccc1C(=O)[Se]C(=NC1CCCCC1)NC1CCCCC1

>  <Class name>
yes (1)

$$$$
>  <Compound>
O=C(NN1C(=O)/C(=C/C=C/c2ccc([N+](=O)[O-])o2)SC1=S)c1ccccc1O

>  <Class name>
yes (1)

$$$$

====

Entries and their growth
Tested on: HCC-2998 colon
Procedure details: NCI-60 one-dose screen, 48 h (100 = growth as untreated, 0 = no growth, -100 = all killed)
Study conditions: 10 µM unless noted
This is part of a sample that, as a whole, favours compounds with a hit. Of some 83,000 tested, about 20% had one in any assay.

>  <Compound>
CC(C)(C)OC(=O)/C=C/c1cccc2c1C(=O)NC(C)(c1cc3cc(Cl)ccc3oc1=O)N2 (stereo not given)

>  <growth / %>
52.9

$$$$
>  <Compound>
Cn1nc(C(F)(F)F)cc1-c1cc(Cl)c(COc2ccc(Cl)cc2)c(-c2ccc(Cl)c(C(F)(F)F)c2)c1O

>  <growth / %>
-33.1

$$$$
>  <Compound>
COc1ccc2c(c1)c(/C=N/Nc1ccc3ccccc3n1)cn2C

>  <growth / %>
-59.6

$$$$
>  <Compound>
O=C(N=Nc1c(O)[nH]c2ccc(Cl)cc12)c1ccc2nc(-c3ccccc3)[nH]c2c1

>  <growth / %>
10.3

$$$$
>  <Compound>
COc1c(F)ccc(C(=O)Nc2ccc3nc(NC(=O)C4CCCN(S(=O)(=O)c5ccc(Cl)cc5)C4)sc3c2)c1F (stereo not given)

>  <growth / %>
103

$$$$

====

Test system: TK-10 renal
Procedure details: NCI-60 one-dose screen, 48 h (100 = growth as untreated, 0 = no growth, -100 = all killed)
Study conditions: 10 µM unless noted
This is part of a sample that, as a whole, favours compounds with a hit. Of some 83,000 tested, about 20% had one in any assay. Calls of active or inactive are those of the source. How the source made its calls: active means growth percent below 10; inactive means the rest.
Quantity kind: growth

>  <Compound>
CC1(C)CC[C@]2(C(=O)O)CC[C@]3(C)C(=CCC4[C@@]5(C)C[C@@H](O)[C@@H]6OC(c7ccccc7Br)OC[C@@]6(C)C5CC[C@]43C)C2C1 (some centres not stated)

>  <Quantity kind>
growth

>  <Result>
21% (inactive)

$$$$
>  <Compound>
CC(=O)Nc1ccc(-n2cnc3ccc(-c4ccc(O)cc4)cc32)cc1

>  <Quantity kind>
growth

>  <Result>
89.9% (inactive)

$$$$
>  <Compound>
C=C1CC[C@@H]2[C@]3(C)COC(c4ccco4)O[C@@H]3CC[C@@]2(C)[C@@H]1C/C=C1/C(=O)OCC1OC(C)=O (some centres not stated)

>  <Quantity kind>
growth

>  <Result>
111% (inactive)

$$$$
>  <Compound>
N#Cc1c(-c2cccc(Cl)c2Cl)cc(-c2c[nH]c3ccccc23)[nH]c1=O

>  <Quantity kind>
growth

>  <Result>
108% (inactive)

$$$$
>  <Compound>
NS(=O)(=O)c1ccc(-n2cc(-c3cccc(NC(=O)c4cc(C(F)(F)F)cc(C(F)(F)F)c4)c3)nn2)cc1

>  <Quantity kind>
growth

>  <Result>
72.9% (inactive)

$$$$
>  <Compound>
CCOC(=O)C1=C(N)N(c2ccccc2)C2=C(C(=O)CC(C)(C)C2)C1c1ccccc1Cl (configuration not stated)

>  <Quantity kind>
growth

>  <Result>
100% (inactive)

$$$$
>  <Compound>
CN1CCN(c2ccc(C(=O)/C=C/c3cc(C(F)(F)F)cc(C(F)(F)F)c3)cc2)CC1

>  <Quantity kind>
growth

>  <Result>
-88.7% (active)

$$$$
>  <Compound>
COc1ccc(-c2ccnc(SCc3cc4cc(Cl)ccc4[nH]c3=O)n2)cc1

>  <Quantity kind>
growth

>  <Result>
19.5% (inactive)

$$$$
>  <Compound>
Nc1nnc(-c2c[nH]c3ccc(Br)cc23)c(-c2c[nH]c3ncc(Br)cc23)n1

>  <Quantity kind>
growth

>  <Result>
33.1% (inactive)

$$$$
>  <Compound>
CCCCSc1nc(NCCc2c[nH]c3ccccc23)c(C#N)c(-c2ccc(F)cc2)n1

>  <Quantity kind>
growth

>  <Result>
107% (inactive)

$$$$
>  <Compound>
COc1ccc(C(=O)/C=C/c2ccc(OCc3ccc(F)cc3)c(OC)c2)cc1OC

>  <Quantity kind>
growth

>  <Result>
39.6% (inactive)

$$$$
>  <Compound>
S=C(Nc1ccc(OCc2nc3ccccc3[nH]2)cc1)NC1CCCCC1

>  <Quantity kind>
growth

>  <Result>
130% (inactive)

$$$$
